test system: L1210 leukemia ip in BDF1 mice, survival T/C; assay: NCI In Vivo Anticancer Drug Screen. Data for tumor model L1210 Leukemia (intraperitoneal) in B6D2F1 (BDF1) mice; details: endpoint: mean survival time; dose: 50.0 mg/kg/injection; schedule: Q01DX009 (ip); vehicle: water; higher = longer survival
Toxic doses and inconclusive results are not listed.
Entries and their T/C values follow.

{"columns": ["compound", "experimentalSystem", "T/C"],
 "data": [
  ["Cn1cnccc1=O", "L1210 leukemia ip in BDF1 mice, survival T/C", "102 % of control"],
  ["NC(CCC(=O)NC(CSCCC(=O)c1ccccc1)C(=O)NCC(=O)O)C(=O)O (centres undefined)", "L1210 leukemia ip in BDF1 mice, survival T/C", "91 % of control"],
  ["CCN(CC)CCCC(C)NC(=O)c1cc(=O)[nH]c(=O)[nH]1 (centres undefined)", "L1210 leukemia ip in BDF1 mice, survival T/C", "96 % of control"],
  ["O=C(Cc1ccccc1)Cc1ccccc1", "L1210 leukemia ip in BDF1 mice, survival T/C", "115 % of control"]
]}

====

system: L1210 leukemia ip in BDF1 mice, survival T/C; assay: NCI In Vivo Anticancer Drug Screen. Data for tumor model L1210 Leukemia (intraperitoneal) in B6D2F1 (BDF1) mice; conditions: endpoint: mean survival time; dose: 100.0 mg/kg/injection; schedule: Q04DX003 (ip); vehicle: Klucel (hydroxypropylcellulose) (HPC); higher = longer survival
Toxic doses and inconclusive results are not listed. Peptide text beside a SMILES is read from it. * marks the point of attachment. Cbz = O=C(OCc1ccccc1)*; OtBu = CC(C)(C)O*
Entries and their T/C values follow.

{"columns": ["molecule", "T/C"],
 "data": [
  ["C=C(CCCCC)C(=O)/C=C/c1ccc(Cl)cc1", "102 % of control"],
  ["Ic1ccc(Oc2ccc(I)cc2)cc1", "113 % of control"],
  ["CC(=O)CCN1C(=O)c2ccccc2C1=O", "101 % of control"],
  ["Cc1ccc(OCCOc2ccc(C(=O)O)cc2)cc1", "95 % of control"],
  ["CCCCCCCCCCCC(=O)NC(=S)Nc1ccccc1C(F)(F)F", "104 % of control"],
  ["O=C(O)c1c(-c2ccccc2)[nH]c2ccccc2c1=O", "88 % of control"],
  ["CN1CCSC1=S", "105 % of control"],
  ["COC(=O)C(CCC(=O)OC(C)(C)C)NC(=O)C(CCC(=O)OC(C)(C)C)NC(=O)OCc1ccccc1 (stereo unspecified) (Cbz-Glu(OtBu)-Glu(OtBu)-OMe; configuration not given here)", "100 % of control"],
  ["OC1COC(c2ccco2)OC1 (stereo unspecified) (tested in a mixture with another compound)", "102 % of control"],
  ["CN(Cc1cc(Br)cc(Br)c1O)C1CC2CCC1(C)C2(C)C (stereo unspecified)", "88 % of control"],
  ["Cc1ccc2c(ccc3ccccc32)n1", "97 % of control"],
  ["Nc1ccc(S(N)(=O)=O)cc1", "114 % of control"],
  ["Clc1ccccc1C(N=Cc1ccc[nH]1)(c1ccccc1)c1ccccc1", "90 % of control"],
  ["S=C=NC1CCC(CC2CCCCC2)CC1 (stereo unspecified)", "98 % of control"],
  ["CCOC(=O)c1c[nH]c(=O)n(-c2ccccc2)c1=O", "109 % of control"],
  ["COc1ccc(N=Nc2ccccc2)cc1", "95 % of control"],
  ["O=C1NC(=O)/C(=C/c2ccco2)N1", "103 % of control"],
  ["Cc1cc(C)c(C(=O)/C=C/c2ccccc2)c(C)c1", "104 % of control"],
  ["Nc1ccccc1Oc1ccccc1", "97 % of control"],
  ["CC1CCN(c2ccc([N+](=O)[O-])cc2)CC1", "97 % of control"],
  ["CC(C)c1ccc(C(c2c(O)c3ccccc3oc2=O)c2c(O)c3ccccc3oc2=O)cc1", "106 % of control"],
  ["CCCCCCCCCCCCCCCCCCCCC1CC(=O)OC1=O (stereo unspecified)", "91 % of control"],
  ["CNC(=O)c1cnc(SC)nc1N", "101 % of control"],
  ["CC(C)C1(C)C(=O)N(C)C(=O)N1Br (stereo unspecified)", "97 % of control"],
  ["NNS(=O)(=O)c1ccc(OCC(=O)O)cc1", "102 % of control"],
  ["CN(Nc1c([N+](=O)[O-])cc([N+](=O)[O-])cc1[N+](=O)[O-])c1cccc2ccccc12", "98 % of control"]
]}

Hey, just so you know, these numbers are from PubChem BioAssay AID248.
